assay: in vitro; conditions: dog, MDCK
Reported Papp by item:

- compound: "COCCc1ccc(OCC(O)CNC(C)C)cc1 (stereo not drawn)"
  Papp / nm/s: 535
- compound: "OC[C@@H](O)[C@@H](O)[C@H](O)[C@H](O)CO"
  Papp / nm/s: 15.1
- compound: "C=C1CN(C(=N)N)C[C@@H]2Nc3c(F)cc(Br)cc3[C@]12CCNS(=O)(=O)c1ccc(Cl)cc1"
  Papp / nm/s: 21.1

---

assay: In vivo pharmacokinetics and tolerability, single IP dose; conditions: mouse, plasma, 30 mg/kg
readout_type: Cmax (ng/mL)

- smiles_notation: "C=C1CN(C(=N)N)C[C@@H]2Nc3c(F)cc(Br)cc3[C@]12CCNS(=O)(=O)c1ccc(Cl)cc1"
  readout_type: "Cmax"
  readout_value: 8000

Reference source for all entries: patent US10253024B2
